assay: human bioavailability comparison study, Tablet Formulation 10 vs co-administered single entity products; type: in vivo; details: human, plasma, oral, Treatment B: one unit Tablet Formulation 10a; human plasma, fasted
Readout: Cmax (nM)
State just the number; it will be interpreted in nM.

Molecule: C=C[C@@H]1C[C@]1(NC(=O)[C@@H]1C[C@@H]2CN1C(=O)[C@H](C(C)(C)C)NC(=O)O[C@@H]1C[C@H]1CCCCCc1nc3ccc(OC)cc3nc1O2)C(=O)NS(=O)(=O)C1CC1 [Compound III, hydrate]
Value unit: nM
Cmax: 19.3

Ask: Reported Cmax, molecule COC(=O)N[C@H](C(=O)N1CCC[C@H]1c1nc(-c2ccc3c(c2)O[C@@H](c2ccccc2)n2c-3cc3cc(-c4c[nH]c([C@@H]5CCCN5C(=O)[C@@H](NC(=O)OC)C(C)C)n4)ccc32)c[nH]1)C(C)C : ____
Reply: 81.8

###

assay: human bioavailability comparison study, Tablet Formulation 9 vs co-administered single entity products; type: in vivo; conditions: human, plasma, oral, Treatment B: two units Tablet Formulation 9a; human plasma, fasted; read-out: C24 GM
Readout: concentration at 24 h (nM)
Value expressed in nM; do not type the unit.

Compound: C=C[C@@H]1C[C@]1(NC(=O)[C@@H]1C[C@@H]2CN1C(=O)[C@H](C(C)(C)C)NC(=O)O[C@@H]1C[C@H]1CCCCCc1nc3ccc(OC)cc3nc1O2)C(=O)NS(=O)(=O)C1CC1 [Compound III, hydrate]
concentration at 24 h [nM]: 5.41

From here, focus on the item given below.
Ask: Which concentration at 24 h value is on record for COC(=O)N[C@H](C(=O)N1CCC[C@H]1c1nc(-c2ccc3c(c2)O[C@@H](c2ccccc2)n2c-3cc3cc(-c4c[nH]c([C@@H]5CCCN5C(=O)[C@@H](NC(=O)OC)C(C)C)n4)ccc32)c[nH]1)C(C)C [Compound II] ?
Reply: 25.2

###

assay: human bioavailability comparison study, Tablet Formulation 10 vs co-administered single entity products; format: in vivo; conditions: human, in vivo, Treatment B: one unit Tablet Formulation 10a; human plasma, fasted
Readout: Cmax
In your response, put the unit directly after the numeric value.

Ask: Cmax lookup needed for CC(C)OC(=O)[C@@H](C)NP(=O)(OC[C@H]1O[C@@H](n2ccc(=O)[nH]c2=O)[C@](C)(Cl)[C@@H]1O)Oc1ccccc1 (stereo partly shown) , thanks.
Reply: 517 nM

###

assay: human bioavailability comparison study, Tablet Formulation 10 vs co-administered single entity products; format: in vivo; details: human, plasma, oral, Treatment B: one unit Tablet Formulation 10a (300 mg Compound I, 100 mg Compound II, 50 mg Compound III); human plasma, fasted; read-out: AUC0-last GM
Readout: AUC(0-t) (µM·h)
Note: unit µM·h is implicit; provide only the numeric part.

Molecule: C=C[C@@H]1C[C@]1(NC(=O)[C@@H]1C[C@@H]2CN1C(=O)[C@H](C(C)(C)C)NC(=O)O[C@@H]1C[C@H]1CCCCCc1nc3ccc(OC)cc3nc1O2)C(=O)NS(=O)(=O)C1CC1 [Compound III, hydrate]
AUC(0-t) [µM·h]: 0.26

Query molecule follows.
Ask: Look up AUC(0-t) for this molecule: COC(=O)N[C@H](C(=O)N1CCC[C@H]1c1nc(-c2ccc3c(c2)O[C@@H](c2ccccc2)n2c-3cc3cc(-c4c[nH]c([C@@H]5CCCN5C(=O)[C@@H](NC(=O)OC)C(C)C)n4)ccc32)c[nH]1)C(C)C
Reply: 1.55

###

experiment: human bioavailability comparison study, Tablet Formulation 9 vs co-administered single entity products; assay type: in vivo; details: human, in vivo, Treatment A: co-administered single entity products, equivalent total dose; human plasma, fasted
Readout: AUC(0-inf) (µM·h)
Write down the numeric answer in µM·h and omit the unit.

Ask: Consider the compound CC(C)OC(=O)[C@@H](C)NP(=O)(OC[C@H]1O[C@@H](n2ccc(=O)[nH]c2=O)[C@](C)(Cl)[C@@H]1O)Oc1ccccc1 (stereo partly shown) [Compound I] and give its measured AUC(0-inf).
Reply: 2.6

###

assay: human bioavailability comparison study, Tablet Formulation 9 vs co-administered single entity products; type: in vivo; conditions: human, plasma, oral, Treatment A: co-administered single entity products, equivalent total dose; human plasma, fasted; read-out: AUC0-24 GM
Entries and their AUC(0-t)
Just so you know, I need the unit written after the number.

Compound: COC(=O)N[C@H](C(=O)N1CCC[C@H]1c1nc(-c2ccc3c(c2)O[C@@H](c2ccccc2)n2c-3cc3cc(-c4c[nH]c([C@@H]5CCCN5C(=O)[C@@H](NC(=O)OC)C(C)C)n4)ccc32)c[nH]1)C(C)C
AUC(0-t): 1210 nM·h

Continue with the next compound.
Ask: // AUC(0-t) lookup, key: C=C[C@@H]1C[C@]1(NC(=O)[C@@H]1C[C@@H]2CN1C(=O)[C@H](C(C)(C)C)NC(=O)O[C@@H]1C[C@H]1CCCCCc1nc3ccc(OC)cc3nc1O2)C(=O)NS(=O)(=O)C1CC1 [Compound III, hydrate]
Reply: 316 nM·h

###

test: human bioavailability comparison study, Tablet Formulation 10 vs co-administered single entity products; type: in vivo; settings: human, in vivo, Treatment A: co-administered single entity products, equivalent total dose; human plasma, fasted; read-out: AUC0-last GM
Readout: AUC(0-t) (nM·h)
Expressed in nM·h, but write only the number.

Ask: Name the reported AUC(0-t) value associated with the compound CC(C)OC(=O)[C@@H](C)NP(=O)(OC[C@H]1O[C@@H](n2ccc(=O)[nH]c2=O)[C@](C)(Cl)[C@@H]1O)Oc1ccccc1 (stereo partly shown)
Reply: 1630

###

test: human bioavailability comparison study, Tablet Formulation 10 vs co-administered single entity products; assay type: in vivo; conditions: human, plasma, oral, Treatment A: co-administered single entity products, equivalent total dose; human plasma, fasted
Readout: Cmax
Form entry: enter the amount, then its unit.

Compound: C=C[C@@H]1C[C@]1(NC(=O)[C@@H]1C[C@@H]2CN1C(=O)[C@H](C(C)(C)C)NC(=O)O[C@@H]1C[C@H]1CCCCCc1nc3ccc(OC)cc3nc1O2)C(=O)NS(=O)(=O)C1CC1 [Compound III, hydrate]
Reading: 27.5 nM

Ask: I would be grateful if you could share the reported Cmax for COC(=O)N[C@H](C(=O)N1CCC[C@H]1c1nc(-c2ccc3c(c2)O[C@@H](c2ccccc2)n2c-3cc3cc(-c4c[nH]c([C@@H]5CCCN5C(=O)[C@@H](NC(=O)OC)C(C)C)n4)ccc32)c[nH]1)C(C)C .
Reply: 101 nM

###

test: human bioavailability comparison study, Tablet Formulation 10 vs co-administered single entity products; type: in vivo; conditions: human, in vivo, Treatment B: one unit Tablet Formulation 10a; human plasma, fasted
Readout: AUC(0-inf) (µM·h)
The reply should contain only the number, in µM·h.

Ask: I would be grateful if you could share the reported AUC(0-inf) for CC(C)OC(=O)[C@@H](C)NP(=O)(OC[C@H]1O[C@@H](n2ccc(=O)[nH]c2=O)[C@](C)(Cl)[C@@H]1O)Oc1ccccc1 (stereo partly shown) .
Reply: 1.65

###

experiment: human bioavailability comparison study, Tablet Formulation 9 vs co-administered single entity products; format: in vivo; details: human, in vivo, Treatment B: two units Tablet Formulation 9a; human plasma, fasted
Readout: Cmax (nM)
Answer format: numeric, nM implied, no suffix.

Ask: Returns the measured Cmax for the input molecule. Input: CC(C)OC(=O)[C@@H](C)NP(=O)(OC[C@H]1O[C@@H](n2ccc(=O)[nH]c2=O)[C@](C)(Cl)[C@@H]1O)Oc1ccccc1 (stereo partly shown) [Compound I]
Reply: 1060

###

test: human bioavailability comparison study, Tablet Formulation 10 vs co-administered single entity products; assay type: in vivo; conditions: human, in vivo, Treatment A: co-administered single entity products, equivalent total dose; human plasma, fasted; read-out: AUC0-24 GM
Readout: AUC(0-t) (µM·h)
Dear colleague, please return just the value in µM·h, with no unit written.

Ask: Would you kindly share the measured AUC(0-t) for CC(C)OC(=O)[C@@H](C)NP(=O)(OC[C@H]1O[C@@H](n2ccc(=O)[nH]c2=O)[C@](C)(Cl)[C@@H]1O)Oc1ccccc1 (stereo partly shown) ?
Reply: 1.65

###

test: human bioavailability comparison study, Tablet Formulation 10 vs co-administered single entity products; assay type: in vivo; conditions: human, in vivo, Treatment A: co-administered single entity products, equivalent total dose; human plasma, fasted
Readout: AUC(0-inf) (µM·h)
Field format: number, assumed µM·h, no unit text.

Ask: Consider the compound shown here: CC(C)OC(=O)[C@@H](C)NP(=O)(OC[C@H]1O[C@@H](n2ccc(=O)[nH]c2=O)[C@](C)(Cl)[C@@H]1O)Oc1ccccc1 (stereo partly shown) [Compound I] What is its recorded AUC(0-inf)?
Reply: 1.69

###

Below, each entry is listed with its recorded AUC(0-inf).
test: human bioavailability comparison study, Tablet Formulation 9 vs co-administered single entity products; assay type: in vivo; settings: human, plasma, oral, Treatment A: co-administered single entity products, equivalent total dose; human plasma, fasted
A number alone suffices; assume µM·h.

Compound: COC(=O)N[C@H](C(=O)N1CCC[C@H]1c1nc(-c2ccc3c(c2)O[C@@H](c2ccccc2)n2c-3cc3cc(-c4c[nH]c([C@@H]5CCCN5C(=O)[C@@H](NC(=O)OC)C(C)C)n4)ccc32)c[nH]1)C(C)C
Reading: 2.04

Consider the record given below.
Ask: Bench note: what AUC(0-inf) did C=C[C@@H]1C[C@]1(NC(=O)[C@@H]1C[C@@H]2CN1C(=O)[C@H](C(C)(C)C)NC(=O)O[C@@H]1C[C@H]1CCCCCc1nc3ccc(OC)cc3nc1O2)C(=O)NS(=O)(=O)C1CC1 [Compound III, hydrate] show?
Reply: 0.7
